Data provenance is ChEMBL document CHEMBL1201862.

Tested on: UACC-62
protocol description: NCI tumour cell line growth inhibition, 48 h
Activity calls are given as the source filed them. Rule as the data show it: active = GI50 up to about 1.1 µM and inactive = higher.
Bench note: report the call from Yes = active, No = inactive

O=C(Oc1cccc2cccnc12)c1cc2cc(CCl)ccc2oc1=O :: No
N/N=C(\N)SCCCCCCCCCCS/C(N)=N/N :: No
O=c1cc(-c2ccccc2)oc2cc(Oc3nnnn3-c3ccccc3)ccc12 :: No
C=CCN(c1cc(OCc2ccccc2)c2c(c(C)cn2S(=O)(=O)c2ccc([N+](=O)[O-])cc2)c1[N+](=O)[O-])S(C)(=O)=O :: No
OCC1OC(c2ccccc2)CC1O (centres undefined) :: No

Answer briefly: the call reported for O=C1C=C2S[C@H]3C[C@]2(C=C1Br)C1=C(N3)C(=O)c2[nH]cc3c2C1=NCC3 [(+)-DISCORHABDIN B] in this assay.
Yes

Answer briefly: the call reported for `CC(C)(C)[Si](C)(C)O/N=C\c1cccc(O[Si](C)(C)C(C)(C)C)c1` in this assay.
No

Answer briefly: the call reported for `O=C1C(=O)N(c2cc(Cl)ccc2Cl)C(=O)C(=O)C1c1nc2ccccc2s1` in this assay.
No

Answer briefly: the call reported for CCCCCCCCCCCCOCC(COP(=O)(O)OCCN=[N+]=[N-])OC(=O)CCCCCCCCCCC (centres undefined) in this assay.
No

---

System: MCF7
protocol description: NCI tumour cell line growth inhibition, 48 h
Active and inactive are the calls of the source. Rule as the data show it: active = GI50 up to about 1.1 µM and inactive = higher.
Bench note: report the call from true (1) = active, false (0) = inactive

Known results for compounds:
COC(=O)/C=C\C(C#N)(C#N)/N=C/c1ccc(OC)cc1 :: false (0)
C=CC(c1ccccc1)C1(O)c2cccc(O)c2C(=O)c2c(O)cccc21 (stereo unspecified) :: false (0)
CCn1c2nc(=O)n(CCCCCCCCSC(c3ccccc3)(c3ccccc3)c3ccccc3)c(=O)c-2nc2ccccc21 :: false (0)
CCOc1ccc(-n2c(=O)n3c(Nc4ccc(Cl)cc4)nc4c(c(=O)n(C)c(=O)n4C)n3c2=O)cc1 :: false (0)
CCC(CCN)(CCN)[N+](=O)[O-] :: false (0)

Answer briefly: the call reported for `COc1cc2c(c(O)c1OC)C(=O)[C@@H]1CCC(=O)N1C2` in this assay.
false (0)

Answer briefly: the call reported for `O=C1C=CC(=O)c2ccc(=O)ccc21` in this assay.
false (0)

Answer briefly: the call reported for O=C1NC(=O)C2(CCc3ccc(N(CCCl)CCCl)cc32)N1 (stereo unspecified) in this assay.
false (0)

Answer briefly: the call reported for `Cc1ccc(Nc2nc3[nH]ccc3c(=O)[nH]2)cc1` in this assay.
false (0)

Answer briefly: the call reported for Cn1ccnc1CC(C)(O)c1ccccc1 (stereo unspecified) in this assay.
false (0)

Answer briefly: the call reported for `Cc1nc(Cl)c(CBr)c(Cl)n1` in this assay.
true (1)

---

Tested on: UACC-257
protocol description: NCI tumour cell line growth inhibition, 48 h
Activity calls are given as the source filed them. No stated cut-off is given here; in the data, active = GI50 up to about 1.1 µM and inactive = higher.
Bench note: report the call from TRUE (active), FALSE (inactive)

Known results for molecules:
CN/C(=N\CCSCc1nc[nH]c1C)NC#N :: FALSE
O=c1[nH]c(=O)n(CCOc2ccc(Cl)cc2)cc1Nc1ccccc1 :: FALSE
CN(CCCCCl)P(=O)(OCc1ccc([N+](=O)[O-])o1)OCC1OC(n2ccc(N)nc2=O)C(O)C1O (stereo not given) :: FALSE
COc1cccc2cc(C(C)=O)c(=O)oc12 :: FALSE
COc1ccc(NC(=O)CC/C(CC(=O)C(C)(C)C)=N\NC(=O)C(N)=O)cc1 :: FALSE

Answer briefly: the call reported for COc1ccc(OC)c(C2Cc3cnc4nc(N)nc(N)c4c3C2)c1 (stereo not given) in this assay.
FALSE

Answer briefly: the call reported for `CC(=O)OC[C@H]1CN(OC(C)=O)C[C@@H](n2cc(C)c(=O)[nH]c2=O)O1` in this assay.
FALSE

Answer briefly: the call reported for `O=C(CNc1ccc([N+](=O)[O-])cc1)Nn1c(-c2ccccc2)nc2ccccc2c1=O` in this assay.
FALSE

Answer briefly: the call reported for O=C1C=C2S[C@H]3C[C@]2(C=C1Br)C1=C(N3)C(=O)c2[nH]cc3c2C1=NCC3 [(+)-DISCORHABDIN B] in this assay.
TRUE

Answer briefly: the call reported for `CCCCN/C(=N\C#N)N(Cc1ccccc1)Cc1ccccc1` in this assay.
FALSE

---

Test system: KM-20L2
protocol description: NCI tumour cell line growth inhibition, 48 h
Activity calls are given as the source filed them. Rule as the data show it: active = GI50 up to about 1.1 µM and inactive = higher.
Bench note: report the call from active, inactive

CCCOc1nc(N)c2cnn(C3CCCCO3)c2n1 (centres undefined) :: inactive
CCCCN(CCCC)C(=O)/C(CC(=O)c1cccc2ccccc12)=N\NC(=O)c1cc2ccccc2cc1O :: inactive
N#C/C(=C/c1ccc2c(c1)OCO2)C(=O)c1ccccc1 :: inactive
CC1(C)CCCC2(C)C3C(O)CC2(C)C(O)C31 (centres undefined) :: inactive
S=c1sc2sc(=S)sc2s1 :: inactive
O=C1CCCCCCCCCCC(=O)C2CCOCCOCCOCCC1Cc1cccc(n1)C2 :: inactive
COC(=O)C(CC(=O)c1c[nH]c2ccccc12)c1c[nH]c2ccccc12 (centres undefined) :: inactive
CO[C@@H]1C=C[C@@]23c4cc5c(cc4CN(C[C@@H]2O)[C@H]3C1)OCO5 [(+)-HAEMANTHAMINE] :: inactive

Now let's try a different one.
Answer briefly: the call reported for CC1C(O)[C@@]2(OC[C@@]34C(=O)CC5(O)[C@H](CCC6Cc7nc8c(nc7C[C@]65C)CC5CC[C@@H]6C7=C[C@H]9O[C@@]%10(O[C@@](C)(CO)C[C@@H]%10O)C(C)[C@@]9(O)[C@]7(C)[C@@H](O)CC6[C@]5(C)C8)C3=CC[C@H]4C2C)OC1(C)C (some centres undefined) in this assay.
active

---

Tested on: ACHN
protocol description: NCI tumour cell line growth inhibition, 48 h
Calls of active or inactive are those of the source. Rule as the data show it: active = GI50 up to about 1.1 µM and inactive = higher.
Bench note: report the call from TRUE for active, FALSE for inactive

OCC1OC(c2ccccc2)CC1O (stereo not given) :: FALSE
O=[N+]([O-])c1ccc(Cl)cc1-n1nc(-c2ccccc2)cc1-c1ccccc1 :: FALSE
O=C(CN1CCN(c2ccccn2)CC1)N1CCCn2c1nc1ccccc1c2=O :: FALSE
O=C1N[C@H](C(=O)O)[C@@H](c2ccc(OCc3ccccc3)cc2)O1 :: FALSE
O=c1oc2ccc(Cl)cc2cc1-c1cn2ccccc2n1 :: FALSE
Cc1ccc(S(=O)(=O)N/N=C(/CC(=O)c2c(C)[n+]([O-])c3ccccc3[n+]2[O-])C(=O)Nc2ccc(C)c(C)c2)cc1 :: FALSE
CCOC(=O)C(CNc1ccc(O)cc1)NC(=O)c1ccccc1 (stereo not given) :: FALSE
OC1c2ccccc2CCC1CN1CCN(CCOC(c2ccc(F)cc2)c2ccc(F)cc2)CC1 (stereo not given) :: FALSE
O=C(N/N=C/c1cc(Cl)cc(Cl)c1O)c1ccccc1O :: TRUE

Answer briefly: the call reported for `O=c1c(C(c2ccc(-c3ccccc3)cc2)c2c(O)oc3ccccc3c2=O)c(O)oc2ccccc12` in this assay.
FALSE

---

Measured GI50 by item
Tested on: SNB-75
protocol description: NCI tumour cell line growth inhibition, 48 h
Calls of active or inactive are those of the source. Cut-off read from the data, not from the text of the source: active = GI50 up to about 1.1 µM and inactive = higher.

Fill in the blank: the reported GI50 of `Nc1ncnc2c1ccn2CC#CCO` is ____.
> 100 µM (inactive)

Fill in the blank: the reported GI50 of `N[C@H](C(=O)O)[C@H]1ON=C(Cl)[C@@H]1O` is ____.
26.2 µM (inactive)

---

System: SNB-78
protocol description: NCI tumour cell line growth inhibition, 48 h
Activity calls are given as the source filed them. Rule as the data show it: active = GI50 up to about 1.1 µM and inactive = higher.
recorded endpoint: GI50

CC1(C)CCCC2(C)C3C(O)CC2(C)C(O)C31 (stereo not given) :: > 100 µM (inactive)
COc1cc2c[n+](C)c3c4cc(OC)c(OC(C)C)cc4ccc3c2cc1OC :: 50 µM (inactive)
CN(C)CC1CCC(CN(C)C)C1=O (stereo not given) :: 5.83 µM (inactive)

Fill in the blank: the reported GI50 of CCN(CC)c1c(C)nnn1C1OC(COC(C)=O)C(OC(C)=O)C(OC(C)=O)C1OC(C)=O (stereo not given) is ____.
> 100 µM (inactive)

Fill in the blank: the reported GI50 of O=C(O)CC12C3C4C5C3C1C5C42 (stereo not given) is ____.
> 100 µM (inactive)

---

Measured GI50 by item
Test system: NCI-H460
protocol description: NCI tumour cell line growth inhibition, 48 h
The source made the active and inactive calls. No stated cut-off is given here; in the data, active = GI50 up to about 1.1 µM and inactive = higher.

For orientation, consider the following solved cases.
CCN(CC)c1c(-c2c(OC(C)C)c(=O)c2=O)c(=O)n2ccsc2c1OC(C)=O :: > 100 µM (inactive)
Cc1ccc(S(=O)(=O)N/N=C(/CC(=O)c2c(C)[n+]([O-])c3ccccc3[n+]2[O-])C(=O)Nc2ccc(C)c(C)c2)cc1 :: 41.9 µM (inactive)
Cc1ccc(S(=O)(=O)OCC/C(=C\[Si](C)(C)C)c2ccccc2)cc1 :: > 100 µM (inactive)
CC(C)(C)OC(=O)c1cnc(Cl)cn1 :: 49.7 µM (inactive)

Let us examine a further case.
Fill in the blank: the reported GI50 of COc1ccc(OC)c(C2Cc3cnc4nc(N)nc(N)c4c3C2)c1 (stereo not given) is ____.
26.5 µM (inactive)
